- Tested System: Recombinant N-terminal GST tag full-length human HDAC8 (Homo sapiens, UniProt Q9BY41)
- Construct: Recombinant N-terminal GST tag full-length human HDAC8
- Sequence (Q9BY41 1-377): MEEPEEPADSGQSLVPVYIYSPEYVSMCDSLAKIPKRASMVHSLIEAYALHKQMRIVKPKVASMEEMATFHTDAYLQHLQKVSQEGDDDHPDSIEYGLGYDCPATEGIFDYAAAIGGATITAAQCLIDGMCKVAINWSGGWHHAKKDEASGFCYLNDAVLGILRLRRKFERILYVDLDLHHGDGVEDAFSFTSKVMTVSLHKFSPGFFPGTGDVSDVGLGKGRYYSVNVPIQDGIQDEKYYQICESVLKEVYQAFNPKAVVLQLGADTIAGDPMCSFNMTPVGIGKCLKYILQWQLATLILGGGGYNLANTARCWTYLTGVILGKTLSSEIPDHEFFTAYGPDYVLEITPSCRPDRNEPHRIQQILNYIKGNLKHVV
- Procedure Details: HDAC8 probe binding assay, time resolved fluorescence (TRF) format
- Test Context: compounds grouped by IC50 range (Table 2)
IC50 listing for selected compounds.

The cases that follow already have their IC50 on record.
N#Cc1c(CN2C(=O)COc3ccc(C(=O)NO)cc32)cn2ccccc12	≤ 25 nM
CC1(C)Oc2ccc(C(=O)NO)cc2N(Cc2ccc3ccccc3c2)C1=O	25 to 100 nM
O=C(NO)c1ccc2c(c1)N(Cc1ccc3ncccc3c1)C(=O)CO2	≤ 25 nM
N#Cc1ccc(CN2C(=O)COc3ccc(C(=O)NO)cc32)cc1	≤ 25 nM
O=C(NO)c1ccc2c(c1)N(Cc1ccc(C(=O)N3CCCC3)cc1)C(=O)CO2	25 to 100 nM
O=C(NO)c1ccc2c(c1)N(Cc1ccc(-n3cccn3)cc1)C(=O)OC2	≤ 25 nM
O=C(NO)c1ccc2c(c1)N(Cc1ccc(N3CCOCC3)cc1)C(=O)CO2	25 to 100 nM
O=C(NO)c1ccc2c(c1)N(Cc1cc(C(F)(F)F)ccc1Cl)C(=O)CO2	≤ 25 nM

QUERY: # IC50 lookup, item COc1ccc(CN2C(=O)C(C)Oc3ccc(C(=O)NO)cc32)cc1 (stereo not drawn)
RESULT: ≤ 25 nM

QUERY: # IC50 lookup, item "CS(=O)(=O)c1ccc(CN2C(=O)COc3ccc(C(=O)NO)cc32)cc1"
RESULT: ≤ 25 nM

QUERY: # IC50 lookup, item "COc1cc(F)c(CN2C(=O)COc3ccc(C(=O)NO)cc32)c(F)c1"
RESULT: ≤ 25 nM

QUERY: # IC50 lookup, item "CN(C)C(=O)c1ccc(CN2C(=O)COc3ccc(C(=O)NO)cc32)cc1"
RESULT: 25 to 100 nM

====

- Tested System: Recombinant N-terminal GST tag full-length human HDAC8 (Homo sapiens)
- Construct: Recombinant N-terminal GST tag full-length human HDAC8
- Sequence (Q9BY41 1-377): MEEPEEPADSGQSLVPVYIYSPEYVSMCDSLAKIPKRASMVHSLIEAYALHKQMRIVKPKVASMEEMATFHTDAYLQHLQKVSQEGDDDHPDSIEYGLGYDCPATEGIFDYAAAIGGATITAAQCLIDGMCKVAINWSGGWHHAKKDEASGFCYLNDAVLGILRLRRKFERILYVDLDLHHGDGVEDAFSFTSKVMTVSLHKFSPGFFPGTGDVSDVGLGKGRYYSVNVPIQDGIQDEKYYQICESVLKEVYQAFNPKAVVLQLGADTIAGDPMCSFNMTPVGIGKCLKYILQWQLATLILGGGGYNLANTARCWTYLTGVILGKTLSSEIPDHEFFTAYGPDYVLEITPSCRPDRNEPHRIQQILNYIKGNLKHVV
- Procedure Details: HDAC8 probe binding assay, time resolved fluorescence (TRF) format
- Test Context: compounds grouped by IC50 range (Table 2)
Measure: IC50

The cases that follow already have their IC50 on record.
O=C(NO)c1ccc2c(c1)N(Cc1nc3ccc(Cl)cc3o1)C(=O)CO2	≤ 25 nM
CC(C)(C)OC(=O)N1CCc2cc(CN3C(=O)COc4ccc(C(=O)NO)cc43)ccc2C1	≤ 25 nM
O=C(NO)c1ccc2c(c1)N(Cc1nc3cc(Cl)ccc3s1)C(=O)CO2	≤ 25 nM
O=C(NO)c1ccc2c(c1)N(Cc1c(F)cccc1Cl)C(=O)CO2	25 to 100 nM
CC1(C)Oc2ccc(C(=O)NO)cc2N(Cc2cccc(C(F)(F)F)c2)C1=O	25 to 100 nM
CS(=O)(=O)c1ccc(CN2CCS(=O)(=O)c3ccc(C(=O)NO)cc32)cc1	≤ 25 nM
O=C(NO)c1ccc2c(c1)N(Cc1cc(F)ccc1Cl)C(=O)CO2	≤ 25 nM
O=C(NO)c1ccc2c(c1)N(Cc1csc(C3CC3)n1)CCO2	> 1000 nM
COc1ccc(Cl)c(CN2C(=O)COc3ccc(C(=O)NO)cc32)c1	≤ 25 nM
CNC(=O)C1CN(Cc2ccc(OC)cc2)c2cc(C(=O)NO)ccc2O1 (stereo not drawn)	25 to 100 nM

QUERY: # IC50 lookup, item "CC1(C)Oc2ccc(C(=O)NO)cc2N(Cc2ccc(OC(F)(F)F)cc2F)C1=O"
RESULT: 25 to 100 nM

QUERY: # IC50 lookup, item "O=C(NO)c1ccc2c(c1)N(Cc1ccc(-c3ccccc3)cc1)C(=O)CO2"
RESULT: ≤ 25 nM

====

pIC50 listing for selected compounds.
- Tested System: Recombinant N-terminal GST tag full-length human HDAC8 (Homo sapiens, UniProt Q9BY41)
- Construct: Recombinant N-terminal GST tag full-length human HDAC8
- Sequence (Q9BY41 1-377): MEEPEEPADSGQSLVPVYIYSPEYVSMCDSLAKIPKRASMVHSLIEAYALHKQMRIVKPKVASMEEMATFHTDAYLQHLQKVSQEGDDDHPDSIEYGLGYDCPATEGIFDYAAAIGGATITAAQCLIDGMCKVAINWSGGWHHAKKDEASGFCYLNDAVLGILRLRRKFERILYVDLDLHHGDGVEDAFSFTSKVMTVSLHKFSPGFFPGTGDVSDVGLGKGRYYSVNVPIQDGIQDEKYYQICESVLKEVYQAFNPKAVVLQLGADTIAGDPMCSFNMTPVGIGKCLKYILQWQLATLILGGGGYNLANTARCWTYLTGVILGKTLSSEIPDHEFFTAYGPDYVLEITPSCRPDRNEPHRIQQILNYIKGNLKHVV
- Procedure Details: HDAC8 probe binding assay, time resolved fluorescence (TRF) format
- Test Context: compounds grouped by IC50 range (Table 2)
- Experimental: The HDAC8 probe binding assay was performed using a time resolved fluorescence (TRF) assay format. Recombinant N-terminal GST tag full-length human HDAC8 was expressed and purified from baculovirus in Sf9 insect cells (SignalChem, #[…]-1000). […] Plates were incubated for 16 hours at room temperature before time resolved fluorescence was read on the Envision (Excitation at 340 nm, and Emission at 485 nm and 535 nm, Perkin Elmer). […] AveLow=average time resolved fluorescence of no enzyme control (n=32). […]
pIC50: −log10 of the molar value.

CC(=O)Nc1ccc(CN2C(=O)COc3ccc(C(=O)NO)cc32)cc1	≥ 7.60
O=C(NO)c1ccc2c(c1)N(Cc1cnc3ccccc3c1)C(=O)CO2	≥ 7.60
COc1ccc(CN2C(=O)COc3ccc(C(=O)NO)cc32)cc1F	≥ 7.60
Cc1nc2ccc(CN3C(=O)COc4ccc(C(=O)NO)cc43)cc2o1	≥ 7.60
Cc1ccc2nc(CN3C(=O)COc4ccc(C(=O)NO)cc43)sc2n1	≥ 7.60
COCCOc1cccc(CN2C(=O)COc3ccc(C(=O)NO)cc32)c1	≥ 7.60

QUERY: # pIC50 lookup, item "O=C(NO)c1ccc2c(c1)N(Cc1cn(-c3ccccc3)nn1)C(=O)CO2"
RESULT: ≥ 7.60

====

- Tested System: Recombinant N-terminal GST tag full-length human HDAC8 (Homo sapiens, UniProt Q9BY41)
- Construct: Recombinant N-terminal GST tag full-length human HDAC8
- Procedure Details: HDAC8 probe binding assay, time resolved fluorescence (TRF) format
- Test Context: compounds grouped by IC50 range (Table 2)
- Procedure: The HDAC8 probe binding assay was performed using a time resolved fluorescence (TRF) assay format. Recombinant N-terminal GST tag full-length human HDAC8 was expressed and purified from baculovirus in Sf9 insect cells (SignalChem, #[…]-1000). […] Plates were incubated for 16 hours at room temperature before time resolved fluorescence was read on the Envision (Excitation at 340 nm, and Emission at 485 nm and 535 nm, Perkin Elmer). […] AveLow=average time resolved fluorescence of no enzyme control (n=32). […]
pIC50: −log10 of the molar value.
Measure: pIC50

CC1(C)Oc2ccc(C(=O)NO)cc2N(Cc2ccc(C(F)(F)F)cc2F)C1=O	≥ 7.60

QUERY: # pIC50 lookup, item "O=C(NO)c1ccc2c(c1)N(Cc1ccc(OC(F)(F)F)cc1)C(=O)CO2"
RESULT: ≥ 7.60

QUERY: # pIC50 lookup, item CC1COc2ccc(C(=O)NO)cc2N1Cc1ccccc1 (stereo not drawn)
RESULT: 7.00 to 7.60

QUERY: # pIC50 lookup, item "O=C(NO)c1ccc2c(c1)N(Cc1nc3cc(F)ccc3o1)C(=O)CO2"
RESULT: ≥ 7.60
